B1: glmS ribozyme (parent)
chain: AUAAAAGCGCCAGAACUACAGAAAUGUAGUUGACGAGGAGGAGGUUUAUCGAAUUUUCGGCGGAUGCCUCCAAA

Variants of: B1
Experiment: self-cleavage kobs at 10000 uM GlcN6P; higher = faster cleavage; RNA array
Details: with glucosamine-6-phosphate
This sample holds only a part of the variants without activity.
self-cleavage kobs at 10000 uM GlcN6P for assorted variants
The reply should be a number in s⁻¹, with the unit left off.

Previously resolved entries follow.
residueCodes: AUAAAAGCGCCAGAACUACAGAAAUGUAGUUGACGAGGAGGUGGUUUAUCGAAUGUUCGGCGGAUGCCUCCAAA [A42U U55G]
attributeMeasured: self-cleavage kobs at 10000 uM GlcN6P
value: 0.000167
--
residueCodes: AUAAAAGCGCCAGAUAUACAGAAAUGUAGUUGACGAGGUGGAGGUUUAUCGAAUUUUCGGCGGAUGCCUCCAAA [A15U C16A A39U]
attributeMeasured: self-cleavage kobs at 10000 uM GlcN6P
value: 0.000273
--
residueCodes: AUAAAAGCGUCAGAACUACAGAAAUGUAGUUGACGAGGAGGAGGUUUAUCGAAUUUUCGGCGGGUGCCUCCAAA [C10U A64G]
attributeMeasured: self-cleavage kobs at 10000 uM GlcN6P
value: 3.21e-05
--
residueCodes: AUAAAAGCGCUAAAACUACAGAAAUGUAGUUGACGAGGAGGAGGUUUAUCGAAUUUUCGGCGGAUGCCUCCAAA [C11U G13A]
attributeMeasured: self-cleavage kobs at 10000 uM GlcN6P
value: 6.97e-05
--
residueCodes: AUAAAAGCGCAAGAACUACAGAAAUGUAGUUGACGAGGAGGAGGUUUGUAGAAUUUUCGGCGGAUGCCUACAAA [C11A A48G C50A C70A]
attributeMeasured: self-cleavage kobs at 10000 uM GlcN6P
value: 5.38e-05
--
residueCodes: AUAAAAGCGCCAGAACUACAGAAAUGUAGUUGACGAGGAGGAGGUUUAUCGACUUGUCGGCGGAUGCCUCCAAA [A53C U56G]
attributeMeasured: self-cleavage kobs at 10000 uM GlcN6P
value: 0.00254
--
residueCodes: AUAAAAGCGCCAGAACUACAGAAAUGUAGUCGACGAGGAGGAGGUUUAUCGAAUCUUCGGCGGAUGCCUCCAAA [U31C U55C]
attributeMeasured: self-cleavage kobs at 10000 uM GlcN6P
value: 0.00585

Please turn your attention to the following entry.
Query :: GET /values?readout=self-cleavage kobs at 10000 uM GlcN6P&item= AUAAAAGCGCCAGAACUACAGAAAUGUAGUUGACGAGGAGGAGGUUUAUCGAUUUUGCGGCGGAUGCCUCCAAA [A53U U57G]
Result :: 0.000115
